Data provenance is ChEMBL document CHEMBL1145814.

# Species: Mus musculus
# Method: Minimal inhibitory concentration required to cause a microscopic detectable alteration of C3H/3T3 embryo murine fibroblast cell morphology
# Format: functional

Compound structure	MIC
CN[C@H](CC(C)C)C(=O)N[C@H]1C(=O)N[C@@H](CC(N)=O)C(=O)N[C@H]2C(=O)N[C@H]3C(=O)N[C@H](C(=O)N[C@H](C(=O)O)c4cc(O)c(CNCc5ccc(-c6ccc(Cl)cc6)cc5)c(O)c4-c4cc3ccc4O)[C@H](O[C@H]3C[C@](C)(N)[C@@H](O)[C@H](C)O3)c3ccc(cc3)Oc3cc2cc(c3O[C@@H]2O[C@H](CO)[C@@H](O)[C@H](O)[C@H]2O[C@H]2C[C@](C)(N)[C@@H](O)[C@H](C)O2)Oc2ccc(cc2Cl)[C@H]1O	> 20 µM
